assayInfo: folding enthalpy; higher = less favourable; fluorescence melt of hairpins on a sequencing array, two-state fit
testParameters: sodium 0.088 M
Quick rule for you: folding enthalpy at -30 kcal/mol or higher means yes (1), lower means no (0).

Query: Given GGTAAACCGAAAGGTACC (((..(((....)))))) , state whether its folding enthalpy is at least -30 kcal/mol.
Response: yes (1)

Query: Now try GCACTAGAAATAGTGC ((((((....)))))) .
Response: no (0)

Query: Now try CGGCCGGAAACGGATCCG ((((((....)))..))) .
Response: yes (1)

Query: Now try GCGGTATCCGC ((((...)))) .
Response: yes (1)

Query: Now try GATCTACTTCTAGATC ((((((....)))))) .
Response: no (0)

Query: Now try GGTGTAGGAAACTGTACC (((..((....))..))) .
Response: yes (1)

Query: Now try CGGCCACGGAAACGTCCG (((..(((....)))))) .
Response: yes (1)

Query: Now try GCAGCGCGAAAGCCATGC (((..((....))..))) .
Response: yes (1)

Query: Now try GATATGGGAAACCACATC (((.(((....))).))) .
Response: yes (1)

Query: Now try GAGACAGGAAACTGCCTC (((.(((....))).))) .
Response: no (0)

Query: Now try GTAAACGAAAGTTTTTAC ((((((....)))..))) .
Response: yes (1)

Query: Now try GAGGACGAAAGTCTCTC ((((((....))).))) .
Response: yes (1)

Query: Now try GATCCGTCCCGGATC ((((((...)))))) .
Response: no (0)

Query: Now try GTGTAGGGAAACCTACGC (.(((((....))))).) .
Response: yes (1)

Query: Now try GATCTAGCAGTAGATC ((((((....)))))) .
Response: no (0)

Query: Now try GATCATGACTATGATC ((((((....)))))) .
Response: no (0)

Query: Now try GACAAGGCGAAAGCCGTC (((..(((....)))))) .
Response: yes (1)

Query: Now try GATCCTTCAAGGATC ((((((...)))))) .
Response: no (0)

Query: Now try GGTAAGCGAAAGCTAACC (((.(((....))).))) .
Response: no (0)

Query: Now try CGGACGGAAACGTCTCCG ((((((....)))..))) .
Response: yes (1)

Query: Now try GCGGCTACCGC ((((...)))) .
Response: yes (1)

Query: Now try GGTTTCGGAAACGAGACC (((.(((....))).))) .
Response: no (0)

Query: Now try GATCATGTGGATGATC ((((((....)))))) .
Response: no (0)

Query: Now try GCCTACACGAAAGTGGGC (((..(((....)))))) .
Response: yes (1)

Query: Now try GATCGCTCATGCGATC ((((((....)))))) .
Response: no (0)

Query: Now try GACCGCGGAAACGCGATC ((.((((....)))).)) .
Response: yes (1)
